Would you kindly list pIC50 for each of these molecules?
- Tested on: human telomerease (HL60 cell extract)
- procedureDetails: Antitelomerease activity: extension of oligonucleotide TS followed by PCR amplification, with HL60 extract
- Assay type: biochemical
- particulars: read-out: TRAP IC50
- Experimental: The antitelomerease biological activity is determined by the following experimental protocol: The leukaemia line HL60 is obtained from ATCC (American Type Culture Collection, Rockville, USA). […] The samples are then analysed by electrophoresis on 12% acrylamide gel in a 1×TBE buffer for 1 hour at a voltage of 200 volts, with the aid of a Novex electrophoresis system. […] The analysis and the quantification of the reaction products are carried out with the aid of an InstantImager apparatus (Pacard). […]
Reminder that pIC50 is minus the log10 of a molar concentration.

// pIC50 lookup, molecule = Cc1cc(N(C)C)c2cc(Nc3nc(Nc4ccc5nc(C)cc(N(C)C)c5c4)nc(Sc4ccc5ccccc5n4)n3)ccc2n1 [Example 133] , result: 6.74

// pIC50 lookup, molecule = Cc1cc(N)c2cc(Nc3nc(Nc4ccc5nc(C)cc(N)c5c4)nc(Nc4ccc5nc(C)cc(N)c5c4)n3)ccc2n1 [Example 2] , result: 7.22

// pIC50 lookup, molecule = Cc1cc(N(C)C)c2cc(Nc3nc(Nc4ccc5nc(C)cc(N(C)C)c5c4)nc(NC(CO)CO)n3)ccc2n1 [Example 170] , result: 5.89

// pIC50 lookup, molecule = Cc1cc(N)c2cc(Nc3nc(NCc4ccccc4)nc(Nc4ccc5nc(C)cc(N)c5c4)n3)ccc2n1 [Example 50] , result: 6.66

// pIC50 lookup, molecule = Cc1cc(N)c2cc(Nc3nc(Nc4ccc5nc(C)cc(N)c5c4)nc(Sc4ncccn4)n3)ccc2n1 [Example 126] , result: 6.17

// pIC50 lookup, molecule = Cc1cc(N)c2cc(Nc3nc(Nc4ccc5nc(C)cc(N)c5c4)nc(Oc4ncccn4)n3)ccc2n1 [Example 111] , result: 6.32

// pIC50 lookup, molecule = Cc1cc(C)nc(Oc2nc(Nc3ccc4nc(C)cc(N)c4c3)nc(Nc3ccc4nc(C)cc(N)c4c3)n2)n1 [Example 109] , result: 6.47

// pIC50 lookup, molecule = Cc1cc(N(C)C)c2cc(Nc3nc(Nc4ccc5nc(C)cc(N(C)C)c5c4)nc(N4CCCC4)n3)ccc2n1 [Example 23] , result: 5.52

// pIC50 lookup, molecule = COc1cccc(Sc2nc(Nc3ccc4nc(C)cc(N)c4c3)nc(Nc3ccc4nc(C)cc(N)c4c3)n2)c1 [Example 122] , result: 6.43

// pIC50 lookup, molecule = Cc1cc(N)c2cc(Nc3nc(NCc4cccc5cnccc45)nc(Nc4ccc5nc(C)cc(N)c5c4)n3)ccc2n1 [Example 81] , result: 5.85

// pIC50 lookup, molecule = Cc1cc(N)c2cc(Nc3nc(Nc4ccc5nc(C)cc(N)c5c4)nc(N4CCN(C(=O)c5ccco5)CC4)n3)ccc2n1 [Example 68] , result: 6.52

// pIC50 lookup, molecule = CC(=O)NCCNc1nc(Nc2ccc3nc(C)cc(N)c3c2)nc(Nc2ccc3nc(C)cc(N)c3c2)n1 [Example 35] , result: 6.30

// pIC50 lookup, molecule = Cc1cc(N)c2cc(Nc3nc(NCCN(CCN(C)C)Cc4ccccc4)nc(Nc4ccc5nc(C)cc(N)c5c4)n3)ccc2n1 [Example 37] , result: 6.64

// pIC50 lookup, molecule = Cc1cc(N)c2cc(Nc3nc(Nc4ccc5nc(C)cc(N)c5c4)nc(N4CCN(CCOCCO)CC4)n3)ccc2n1 [Example 69] , result: 6.80

// pIC50 lookup, molecule = Cc1cc(N)c2cc(Nc3nc(Nc4ccc5nc(C)cc(N)c5c4)nc(OCCCN(C)C)n3)ccc2n1 [Example 31] , result: 6.52

* * *

- System: human telomerease (HL60 cell extract)
- procedureDetails: Antitelomerease activity: extension of oligonucleotide TS followed by PCR amplification, with HL60 extract
- Assay type: biochemical
- particulars: read-out: TRAP IC50
valueType: pIC50
Reminder that pIC50 is minus the log10 of a molar concentration.

// pIC50 lookup, compound = Cc1cc(N)c2cc(Nc3nc(NCCN(C(C)C)C(C)C)nc(Nc4ccc5nc(C)cc(N)c5c4)n3)ccc2n1 , result: 6.64

// pIC50 lookup, compound = CCN(CCSc1nc(Nc2ccc3nc(C)cc(N)c3c2)nc(Nc2ccc3nc(C)cc(N)c3c2)n1)Cc1ccccc1 , result: 6.04

// pIC50 lookup, compound = Cc1cc(N)c2cc(Nc3nc(NCCN4CCOCC4)nc(Nc4ccc5nc(C)cc(N)c5c4)n3)ccc2n1 , result: 5.92

// pIC50 lookup, compound = Cc1cc(N)c2cc(Nc3nc(Nc4ccc5nc(C)cc(N)c5c4)nc(N(C)CC4CCN(C)CC4)n3)ccc2n1 , result: 7.00

// pIC50 lookup, compound = Cc1cc(N(C)C)c2cc(Nc3nc(NCc4ccncc4)nc(Nc4ccc5nc(C)cc(N(C)C)c5c4)n3)ccc2n1 [Example 27] , result: 6.22

// pIC50 lookup, compound = Cc1cc(N(C)C)c2cc(Nc3nc(Nc4ccc5nc(C)cc(N(C)C)c5c4)nc(N(CCO)CCO)n3)ccc2n1 , result: 5.72

// pIC50 lookup, compound = Cc1cc(N)c2cc(Nc3nc(Nc4ccc5ncccc5c4)nc(Nc4ccc5nc(C)cc(N)c5c4)n3)ccc2n1 , result: 6.32

// pIC50 lookup, compound = Cc1cc(N(C)C)c2cc(Nc3nc(Nc4ccc5nc(C)cc(N(C)C)c5c4)nc(NC(C)CO)n3)ccc2n1 (stereo not shown) , result: 5.52

// pIC50 lookup, compound = Cc1cc(N)c2cc(Nc3nc(Nc4ccc5nc(C)cc(N)c5c4)nc(N4CCCCC4CN4CCCCC4)n3)ccc2n1 (stereo not shown) , result: 6.25

// pIC50 lookup, compound = Cc1cc(N)c2cc(Nc3nc(Nc4ccc5nc(C)cc(N)c5c4)nc(Oc4ccc5ccccc5c4)n3)ccc2n1 , result: 6.43

// pIC50 lookup, compound = Cc1cc(N(C)C)c2cc(Nc3nc(Nc4ccc5nc(C)cc(N(C)C)c5c4)nc(N4CCN(C)CC4)n3)ccc2n1 , result: 6.36

// pIC50 lookup, compound = COC(C)CNc1nc(Nc2ccc3nc(C)cc(N)c3c2)nc(Nc2ccc3nc(C)cc(N)c3c2)n1 (stereo not shown) , result: 5.92

// pIC50 lookup, compound = CCOc1cc(Nc2nc(Nc3ccc4nc(C)cc(N)c4c3)nc(Nc3ccc4nc(C)cc(N)c4c3)n2)c2ncccc2c1 , result: 6.24

// pIC50 lookup, compound = Cc1cc(N)c2cc(Nc3nc(Nc4ccc5nc(C)cc(N)c5c4)nc(N4CCN(CCCN(C)C)CC4)n3)ccc2n1 , result: 7.05

// pIC50 lookup, compound = Cc1cc(N)c2cc(Nc3nc(Nc4ccc5nc(C)cc(N)c5c4)nc(N4CCCC4c4cccnc4)n3)ccc2n1 (stereo not shown) , result: 6.70

// pIC50 lookup, compound = Cc1cc(N)c2cc(Nc3nc(Nc4ccc5nc(C)cc(N)c5c4)nc(Nc4ccc5nc(C)cc(N(C)C)c5c4)n3)ccc2n1 , result: 6.80

// pIC50 lookup, compound = Cc1cc(N)c2cc(Nc3nc(Nc4ccc5nc(C)cc(N)c5c4)nc(N4CCCC(O)C4)n3)ccc2n1 (stereo not shown) , result: 6.44

// pIC50 lookup, compound = CCN(CC)CCOc1nc(Nc2ccc3nc(C)cc(N)c3c2)nc(Nc2ccc3nc(C)cc(N)c3c2)n1 , result: 6.55

// pIC50 lookup, compound = Cc1cc(N)c2cc(Nc3nc(Nc4ccc5nc(C)cc(N)c5c4)nc(Sc4ccc5ccccc5c4)n3)ccc2n1 , result: 5.74

// pIC50 lookup, compound = COC(=O)NCCNc1nc(Nc2ccc3nc(C)cc(N)c3c2)nc(Nc2ccc3nc(C)cc(N)c3c2)n1 , result: 6.00

// pIC50 lookup, compound = COc1ccc(CNc2nc(Nc3ccc4nc(C)cc(N)c4c3)nc(Nc3ccc4nc(C)cc(N)c4c3)n2)cc1 , result: 5.92

// pIC50 lookup, compound = COC(C)CNc1nc(Nc2ccc3nc(C)cc(N(C)C)c3c2)nc(Nc2ccc3nc(C)cc(N(C)C)c3c2)n1 (stereo not shown) , result: 5.85

// pIC50 lookup, compound = Cc1cc(N)c2cc(Nc3nc(Nc4ccc5nc(C)cc(N)c5c4)nc(NC4CCN(C)CC4)n3)ccc2n1 , result: 6.59

// pIC50 lookup, compound = Cc1cc(N)c2cc(Nc3nc(NCCN4CCN(Cc5ccccc5)CC4)nc(Nc4ccc5nc(C)cc(N)c5c4)n3)ccc2n1 , result: 6.85

// pIC50 lookup, compound = Cc1cc(N(C)C)c2cc(Nc3nc(Nc4ccc5nc(C)cc(N(C)C)c5c4)nc(N4CCCC(O)C4)n3)ccc2n1 (stereo not shown) , result: 6.15

// pIC50 lookup, compound = Cc1cc(N)c2cc(Nc3nc(Nc4ccc5nc(C)cc(N)c5c4)nc(N4CCN(c5ccc6ccccc6n5)CC4)n3)ccc2n1 , result: 6.46

// pIC50 lookup, compound = CC1=NCCN1c1nc(Nc2ccc3nc(C)cc(N(C)C)c3c2)nc(Nc2ccc3nc(C)cc(N(C)C)c3c2)n1 , result: 5.82

// pIC50 lookup, compound = Cc1cc(N)c2cc(Nc3nc(Nc4ccc5nc(C)cc(N)c5c4)nc(N4CCN(C5CCCC5)CC4)n3)ccc2n1 , result: 6.74
